Please provide measured pKi for the entries that follow.
- target or system: human adenosine A2A receptor (Homo sapiens, UniProt P29274)
- Construct: expressed in transfected cells; host or cells: CHO cells, semliki forest virus expression system; washed membranes
- Sequence (P29274 whole entry): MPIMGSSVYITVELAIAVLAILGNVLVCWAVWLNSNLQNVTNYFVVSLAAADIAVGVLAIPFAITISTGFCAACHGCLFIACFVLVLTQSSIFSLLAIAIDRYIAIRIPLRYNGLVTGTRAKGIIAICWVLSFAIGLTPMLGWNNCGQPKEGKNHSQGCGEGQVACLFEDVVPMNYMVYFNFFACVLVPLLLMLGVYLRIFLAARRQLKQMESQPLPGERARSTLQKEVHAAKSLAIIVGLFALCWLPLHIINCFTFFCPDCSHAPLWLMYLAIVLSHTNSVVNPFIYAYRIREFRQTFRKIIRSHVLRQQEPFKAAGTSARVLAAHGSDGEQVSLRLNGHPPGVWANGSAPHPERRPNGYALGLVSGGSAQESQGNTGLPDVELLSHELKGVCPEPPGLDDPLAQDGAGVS
- test protocol: [3H]-SCH-58261 binding assay, human adenosine A2A receptor (CHO cell membranes, SPA)
- setup conditions: [3H]-SCH-58261 displacement; Ki by Cheng-Prussoff; table of preferred compounds; read-out: hA2a Ki
In simple prose, pKi is minus the logarithm base ten of a concentration in moles per litre.

Q) If you can, please state the reported pKi value of C[C@@H]1C[C@@H](C)CN(C(=O)c2cc(N)c3nc(-c4ccc(Br)o4)nn3c2)C1 (stereo in doubt) .
A) 7.43

Q) Next up: CC1CCCN1C(=O)c1cc(N)c2nc(-c3ccco3)nn2c1 (stereo not drawn)
A) 7.46

Q) Next up: CN(C)C(=O)[C@@H]1CCCN1C(=O)c1cc(N)c2nc(-c3ccc(Br)o3)nn2c1
A) 7.17

###

- target or system: human adenosine A2A receptor (Homo sapiens)
- Construct: expressed in transfected cells; host or cells: CHO cells, semliki forest virus expression system; washed membranes
- test protocol: [3H]-SCH-58261 binding assay, human adenosine A2A receptor (CHO cell membranes, SPA)
- setup conditions: [3H]-SCH-58261 displacement; Ki by Cheng-Prussoff; table of preferred compounds; read-out: hA2a Ki
quantity measured: Ki (nM)
Return type: number; implicit unit nM.

Q) If you can, please state the reported Ki value of COC[C@H]1CCCN1C(=O)c1cc(N)c2nc(-c3ccco3)nn2c1 .
A) 69.4

Q) Next up: Cc1ccc(-c2nc3c(N)cc(C(=O)N4CCCC4C)cn3n2)o1 (centres unmarked)
A) 75.2

Q) Next up: Nc1cc(C(=O)N(Cc2ccccc2)Cc2ccccc2)cn2nc(-c3cccs3)nc12
A) 83

Q) Next up: Cc1ccc(-c2nc3c(N)cc(C(=O)N4CCCC(C)C4)cn3n2)o1 (centres unmarked)
A) 56.2

Q) Next up: COCC1CCCN1C(=O)c1cc(N)c2nc(-c3ccco3)nn2c1 (stereo in doubt)
A) 77.6

###

- target or system: human adenosine A2A receptor (Homo sapiens, UniProt P29274)
- Construct: expressed in transfected cells; host or cells: CHO cells, semliki forest virus expression system; washed membranes
- test protocol: [3H]-SCH-58261 binding assay, human adenosine A2A receptor (CHO cell membranes, SPA)
- setup conditions: ratio hA1 Ki / hA2a Ki
// NB: equality with 20 counts as -1; only Select. A1/A2a strictly below is 1

Q) Take the compound CC1CCCN1C(=O)c1cc(N)c2nc(-c3ccco3)nn2c1 (stereo not shown) and say whether its Select. A1/A2a is less than 20.
A) -1

Q) Next up: C[C@@H]1C[C@@H](C)CN(C(=O)c2cc(N)c3nc(-c4ccc(Br)o4)nn3c2)C1 (stereo in doubt)
A) -1

Q) Next up: CN(C)C(=O)[C@@H]1CCCN1C(=O)c1cc(N)c2nc(-c3ccc(Br)o3)nn2c1
A) 1

Q) Next up: Nc1cc(C(=O)N(Cc2ccccc2)Cc2ccccc2)cn2nc(-c3cccs3)nc12
A) 1

Q) Next up: NC(=O)[C@H]1CCCN1C(=O)c1cc(N)c2nc(-c3ccco3)nn2c1
A) 1

Q) Next up: CN(CCC#N)C(=O)c1cc(N)c2nc(-c3ccc(Br)o3)nn2c1
A) 1

Q) Next up: Nc1cc(C(=O)N(Cc2ccccc2)Cc2ccccc2)cn2nc(-c3ccco3)nc12
A) 1

Q) Next up: CC1CCCCN1C(=O)c1cc(N)c2nc(-c3ccco3)nn2c1 (stereo not shown)
A) 1

Q) Next up: Cc1ccc(-c2nc3c(N)cc(C(=O)N4CCCC4C)cn3n2)o1 (stereo not shown)
A) 1

Q) Next up: Cc1ccc(-c2nc3c(N)cc(C(=O)N4CCCC(C)C4)cn3n2)o1 (stereo not shown)
A) -1

Q) Next up: COCC1CCCN1C(=O)c1cc(N)c2nc(-c3ccco3)nn2c1 (stereo in doubt)
A) -1

Q) Next up: COC[C@H]1CCCN1C(=O)c1cc(N)c2nc(-c3ccco3)nn2c1
A) -1
